- protocol.notes: Stressed thermal stability test (70° C. for 58 hours), impurities by HPLC
- Assay type: physicochemical
- details: End of test time, Hydrochloride
- Source text: However, the presence of free HCl in Atomoxetine Hydrochloride, which is easily detected by a pH test of a solution of Atomoxetine Hydrochloride in water, results in significant degradation of the Atomoxetine Hydrochloride, as described below.
Structures can show the parent of a compound that is named as a salt.
assay.metric: Impurity (c) (HPLC A %)

Query CNCCC(Oc1ccccc1C)c1ccccc1 (single isomer, unassigned) [Sample 3, Atomoxetine Hydrochloride] yields Impurity (c) (HPLC A %) of not detected

Measured Impurity (c) (HPLC A %) of CNCCC(Oc1ccccc1C)c1ccccc1 (single isomer, unassigned) [Sample 2, Atomoxetine Hydrochloride] : not detected

Form: compound = CNCCC(Oc1ccccc1C)c1ccccc1 (single isomer, unassigned) [Sample 1, Atomoxetine Hydrochloride] ; Impurity (c) (HPLC A %) = 26.2% HPLC A %

Form field Impurity (c) (HPLC A %), entry CNCCC(Oc1ccccc1C)c1ccccc1 (single isomer, unassigned) [Sample 4, Atomoxetine Hydrochloride] : not detected

====

- protocol.notes: Stability test (40° C., five days), impurities by HPLC
- Type: physicochemical
- details: Time zero, Hydrochloride
Structures can show the parent of a compound that is named as a salt.
assay.metric: Impurity (a) (HPLC A %)

Kindly note the recorded Impurity (a) (HPLC A %) for CNCCC(Oc1ccccc1C)c1ccccc1 (stereo not shown) [Sample 7, Atomoxetine Hydrochloride] , which is 0.014% HPLC A %

Reported Impurity (a) (HPLC A %) for CNCCC(Oc1ccccc1C)c1ccccc1 (stereo not shown) [Sample 10, Atomoxetine Hydrochloride] was not detected

Record summary for CNCCC(Oc1ccccc1C)c1ccccc1 (stereo not shown) [Sample 9, Atomoxetine Hydrochloride] : reported Impurity (a) (HPLC A %) = not detected

Value of Impurity (a) (HPLC A %) reported for the compound CNCCC(Oc1ccccc1C)c1ccccc1 (stereo not shown) [Sample 8, Atomoxetine Hydrochloride] is not detected

====

- protocol.notes: Determination of pH of Atomoxetine Hydrochloride samples in aqueous solution
- Assay type: physicochemical
- details: 2% (w/V) aqueous solution; Hydrochloride
Counter-ions that a name gives are not always drawn.
assay.metric: pH of 2% (w/V) aqueous solution

P: CNCCC(Oc1ccccc1C)c1ccccc1 (single isomer, unassigned) [Sample 4, Atomoxetine Hydrochloride]
Q: CNCCC(Oc1ccccc1C)c1ccccc1 (single isomer, unassigned) [Sample 1, Atomoxetine Hydrochloride]
Could you determine which record has the numerically smaller pH of 2% (w/V) aqueous solution? Candidates: P and Q // output: label of the selected item
Q
(Q: 2.4, P: 5.9)

====

- protocol.notes: Stability test (40° C., five days), impurities by HPLC
- Type: physicochemical
- details: End of test time, Hydrochloride
Counter-ions that a name gives are not always drawn.
assay.metric: Impurity (c) (HPLC A %)

Measured Impurity (c) (HPLC A %), CNCCC(Oc1ccccc1C)c1ccccc1 (stereo not shown) [Sample 7, Atomoxetine Hydrochloride] : 0.689% HPLC A %

CNCCC(Oc1ccccc1C)c1ccccc1 (stereo not shown) [Sample 8, Atomoxetine Hydrochloride] has a reported Impurity (c) (HPLC A %) of not detected

// Impurity (c) (HPLC A %) value for CNCCC(Oc1ccccc1C)c1ccccc1 (stereo not shown) [Sample 10, Atomoxetine Hydrochloride] : not detected

Please fill in: Impurity (c) (HPLC A %) reported for CNCCC(Oc1ccccc1C)c1ccccc1 (stereo not shown) [Sample 9, Atomoxetine Hydrochloride] = not detected
